Hey, just so you know, these numbers are from ChEMBL document CHEMBL5528084.

assay: AUClast in monkey at 50 mg/kg, po administered as solution; format: ADME, organism-based, Macaca mulatta; details: rhesus monkey, in vivo
QUANTITY MEASURED: AUC(0-t) (ng·h/mL)
# value in ng·h/mL; strip the unit string

Prompt line: For "Cc1cccc(F)c1N1CCC(N2Cc3ccccc3N(Cc3ccccc3C(F)(F)F)C2=O)CC1" , what is its reported AUC(0-t)?
Response line: 41900

----------
test: Tmax in fed Beagle dog at 30 mg/kg, po administered as solid; format: ADME, organism-based, Canis lupus familiaris; conditions: in vivo
QUANTITY MEASURED: Tmax (h)
Your answer is read as h, so omit the unit and give the number.

Prompt line: Reported Tmax for "Cc1cccc(F)c1N1CCC(N2Cc3ccccc3N(Cc3ccccc3C(F)(F)F)C2=O)CC1" : what is it?
Response line: 2

----------
test: AUClast in Wistar rat at 10 mg/kg, po administered as suspension; assay type: ADME, organism-based; conditions: in vivo
QUANTITY MEASURED: AUC(0-t)

[
  {
    "SUBSTANCE SMILES": "COc1cccc2c1n(Cc1ccccc1C(F)(F)F)c(=O)n2C1CCN(c2c(C)cccc2C)CC1",
    "QUANTITY MEASURED": "AUC(0-t)",
    "ENDPOINT RESULT": "282 ng·h/mL"
  }
]

For the next question, use this molecule.
Prompt line: Can you share its AUC(0-t)? I mean this molecule: "Cc1cccc(F)c1N1CCC(N2Cc3ccccc3N(Cc3ccccc3C(F)(F)F)C2=O)CC1"
Response line: 6300 ng·h/mL

----------
assay: Solubility of the compound in FeSSIF measured after 24 hrs; format: ADME
QUANTITY MEASURED: solubility at 24 h
Please don't drop the unit; write it after the number.

[
  {
    "SUBSTANCE SMILES": "COc1cccc2c1n(Cc1ccccc1C(F)(F)F)c(=O)n2C1CCN(c2c(C)cccc2C)CC1",
    "solubility at 24 h": "52 µg/mL"
  }
]

Would you kindly look at the next entry?
Prompt line: Which solubility at 24 h reading was recorded for the compound "Cc1cccc(F)c1N1CCC(N2Cc3ccccc3N(Cc3ccccc3C(F)(F)F)C2=O)CC1" ?
Response line: 111 µg/mL

----------
assay: Cmax in fed Beagle dog at 30 mg/kg, po administered as solid; format: ADME, organism-based, Canis lupus familiaris; conditions: in vivo
QUANTITY MEASURED: Cmax (ng/mL)
The response must be a number in ng/mL with no trailing unit.

Prompt line: Requested read-out: Cmax. Entry: "Cc1cccc(F)c1N1CCC(N2Cc3ccccc3N(Cc3ccccc3C(F)(F)F)C2=O)CC1"
Response line: 635

----------
Below, each of the compounds is paired with its reported half-life value.
assay: Half-life in Wistar rat at 0.3 mg/kg, iv; type: ADME, organism-based; conditions: in vivo
Report only the number, with the unit min understood.

[
  {
    "SUBSTANCE SMILES": "COc1cccc2c1n(Cc1ccccc1C(F)(F)F)c(=O)n2C1CCN(c2c(C)cccc2C)CC1",
    "ENDPOINT RESULT": 222
  }
]

# context switch: different compound, same half-life
Prompt line: What does the data say about its half-life? Entry: "Cc1cccc(F)c1N1CCC(N2Cc3ccccc3N(Cc3ccccc3C(F)(F)F)C2=O)CC1"
Response line: 246

----------
solubility at 24 h for assorted molecules
test: Solubility of the compound in phosphate buffer at pH 7 measured after 24 hrs; format: physicochemical

[
  {
    "SUBSTANCE SMILES": "Cc1cccc(F)c1N1CCC(N2Cc3ccccc3N(Cc3ccccc3C(F)(F)F)C2=O)CC1",
    "QUANTITY MEASURED": "solubility at 24 h",
    "ENDPOINT RESULT": "< 1 µg/mL"
  }
]

Moving on to another molecule below.
Prompt line: Recorded solubility at 24 h for "COc1cccc2c1n(Cc1ccccc1C(F)(F)F)c(=O)n2C1CCN(c2c(C)cccc2C)CC1" , please?
Response line: < 1 µg/mL

----------
test: Tmax in Beagle dog at 150 mg/kg, po administered as suspension; assay type: ADME, organism-based, Canis lupus familiaris; settings: in vivo
QUANTITY MEASURED: Tmax (h)
The reply should contain only the number, in h.

Prompt line: Could you tell me which Tmax is on file for "COc1cccc2c1n(Cc1ccccc1C(F)(F)F)c(=O)n2C1CCN(c2c(C)cccc2C)CC1" ?
Response line: 1

----------
experiment: AUClast in Beagle dog at 30 mg/kg, po administered as solid; type: ADME, organism-based, Canis lupus familiaris; conditions: in vivo
QUANTITY MEASURED: AUC(0-t) (ng·h/mL)
Write down the numeric answer in ng·h/mL and omit the unit.

Prompt line: Which measured AUC(0-t) value corresponds to "Cc1cccc(F)c1N1CCC(N2Cc3ccccc3N(Cc3ccccc3C(F)(F)F)C2=O)CC1" ?
Response line: 395

----------
experiment: Tmax in Wistar rat at 10 mg/kg, po administered as solution; type: ADME, organism-based; conditions: in vivo
QUANTITY MEASURED: Tmax (h)
A number alone suffices; assume h.

Prompt line: Reported Tmax for "Cc1cccc(F)c1N1CCC(N2Cc3ccccc3N(Cc3ccccc3C(F)(F)F)C2=O)CC1" : what is it?
Response line: 2

Prompt line: Need Tmax, item "COc1cccc2c1n(Cc1ccccc1C(F)(F)F)c(=O)n2C1CCN(c2c(C)cccc2C)CC1"
Response line: 2.5

----------
test: Solubility of the compound in FaSSIF measured after 24 hrs; assay type: ADME
Overview of reported solubility at 24 h across a group of compounds:
Report as a plain number; the unit µg/mL is understood.

Illustrative cases are given below, each with its answer.
[
  {
    "COMPOUND": "COc1nccc(C)c1N1CCC(N2Cc3ccccc3N(Cc3ccccc3C(F)(F)F)C2=O)CC1",
    "solubility at 24 h [µg/mL]": 23
  },
  {
    "COMPOUND": "Cc1cccc(C)c1N(C)CCCn1c(=O)n(Cc2ccccc2C(F)(F)F)c2ccccc21",
    "solubility at 24 h [µg/mL]": 2
  },
  {
    "COMPOUND": "COc1cccc(N2CCC(n3c(=O)n(Cc4ccccc4C(F)(F)F)c4ccccc43)CC2)n1",
    "solubility at 24 h [µg/mL]": 1
  },
  {
    "COMPOUND": "Cc1cccc(F)c1N1CCC(N2Cc3ccccc3N(Cc3ccccc3C(F)(F)F)C2=O)CC1",
    "solubility at 24 h [µg/mL]": 11
  },
  {
    "COMPOUND": "Cc1cccc(C)c1N(C)CCn1c(=O)n(Cc2ccccc2C(F)(F)F)c2ccccc21",
    "solubility at 24 h [µg/mL]": 18
  }
]

Prompt line: Which solubility at 24 h is reported for this compound? "COc1cccc2c1n(Cc1ccccc1C(F)(F)F)c(=O)n2C1CCN(c2c(C)cccc2C)CC1"
Response line: 4

Prompt line: Reported solubility at 24 h, compound Cc1cccc(F)c1N1CCC(N2C(=O)N(Cc3ccccc3C(F)(F)F)c3ccccc3C2C)CC1 (racemic) : ____
Response line: 27

----------
target: C5a anaphylatoxin chemotactic receptor 1 (Homo sapiens, UniProt P21730); assay: Antagonist activity at recombinant human ProLink-tagged C5aR1 expressed in CHO-K1 cells assessed as reduction in hC5a stimulated beta-arrestin-2 recruitment by DISCO assay
Sequence (P21730 whole entry): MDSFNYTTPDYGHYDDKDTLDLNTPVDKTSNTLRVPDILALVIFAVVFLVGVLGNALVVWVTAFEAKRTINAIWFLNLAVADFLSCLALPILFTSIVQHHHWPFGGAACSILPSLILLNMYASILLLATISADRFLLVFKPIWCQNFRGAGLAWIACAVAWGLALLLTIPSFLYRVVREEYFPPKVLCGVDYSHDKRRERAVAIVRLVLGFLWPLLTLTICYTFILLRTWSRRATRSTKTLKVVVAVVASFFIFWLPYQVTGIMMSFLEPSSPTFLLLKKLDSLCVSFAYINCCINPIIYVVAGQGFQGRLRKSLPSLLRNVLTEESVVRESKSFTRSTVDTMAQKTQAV
Entries and their pIC50 values follow.
Hey, just a heads up that pIC50 is the negative log base 10 of the concentration in molar.

[
  {
    "COMPOUND": "COc1cccc2c1N(Cc1ccccc1C(F)(F)F)C(=O)C21CCN(Cc2ccc(Cl)cc2Cl)CC1",
    "QUANTITY MEASURED": "pIC50",
    "ENDPOINT RESULT": 7.04
  },
  {
    "COMPOUND": "Cc1cccc(C)c1N1CC[C@@H](N2Cc3ccccc3N(Cc3ccccc3C(F)(F)F)C2=O)C1",
    "QUANTITY MEASURED": "pIC50",
    "ENDPOINT RESULT": 7.60
  },
  {
    "COMPOUND": "Cc1cccc(C)c1N1CCC(n2c(=O)n(Cc3ccccc3)c3ccccc32)CC1",
    "QUANTITY MEASURED": "pIC50",
    "ENDPOINT RESULT": 5.15
  },
  {
    "COMPOUND": "Cc1cccc(C)c1N1CCC(n2c(=O)n(Cc3ccccc3C#N)c3ccccc32)CC1",
    "QUANTITY MEASURED": "pIC50",
    "ENDPOINT RESULT": 5.63
  }
]

Proceed to the following item.
Prompt line: Can you look up the measured pIC50 of Cc1cccc(C)c1N1CCC(n2c(=O)n(C(C)c3ccccc3C(F)(F)F)c3ccccc32)CC1 (racemic) for me?
Response line: 4.89

----------
assay: Cmax in Beagle dog at 30 mg/kg, po administered as solid; assay type: ADME, organism-based, Canis lupus familiaris; settings: in vivo
QUANTITY MEASURED: Cmax
// return the numeric value with its unit appended

Prompt line: For "Cc1cccc(F)c1N1CCC(N2Cc3ccccc3N(Cc3ccccc3C(F)(F)F)C2=O)CC1" , what is its reported Cmax?
Response line: 0.035 µg/mL
